# credit: patent US20200317791A1

Provide the reported IL-2 % Inhibition (8.5 nM mAb), HLA-Cw6-00290 of each item.
# Measurement Target: HLA-Cw6/ADAMTSL5-Abu on rhHLA-Cw6 expressing cells loaded with ADAM-Abu peptide (human), P10321
# Procedure Text: cell-based or functional assay
// units = %; emit number, no label

Input line: Which value of IL-2 % Inhibition (8.5 nM mAb), HLA-Cw6-00290 has been reported for CW6B175 (antibody, V domains shown) VH: EVQLVESGGGLVQPGGSLRLSCAASGFTFTNYWMTWVRQAPGKGLEWVANIKQSGSEKYYVDSVKGRFTISRDNAKNSLYLQMNSLRAEDTAVYYCARTLYEWELEPFDYWGQGTLVTVSS VL: SYVLTQPPSVSVAPGQTARITCGGNRIGSKSVHWYQQKPGQAPVLVVFDDSDRPSGIPERFSGSNSGITATLTISRVEAGDEADYYCQVWDSSNDHVVFGGGTKLTVL in the records?
Output line: 96

Input line: Which value of IL-2 % Inhibition (8.5 nM mAb), HLA-Cw6-00290 has been reported for CW6B237 (antibody, V domains shown) VH: QVTLKESGPVLVKPTETLTLTCTVSGFSLSNARMGVSWIRQPPGKALEWLAHIFSHDEKFYSTFLKSRLTISKDTSKSQVVLMMTNMDPVDTATYYCARIILSSSGHDAFDIWGQGTMVTVSS VL: AIQMTQSPSSLSASVGDRVTITCRASQDIRHNLGWYQQKPGKAPNLLIYAASSLQSGVPSRFSGSGSGTDFILTISSLQPEDFATFFCLQDYIYPLTFGGGTKVEIK in the records?
Output line: 59

Input line: Which value of IL-2 % Inhibition (8.5 nM mAb), HLA-Cw6-00290 has been reported for CW6B238 (antibody, V domains shown) VH: QVTLKESGPVLVKPTETLTLTCTVSGFSLNNARMGVSWIRQPPGKALEWLAHMFSSDEKFYRTSLKSRLTISKDTSKSQVVLTMTNMDPVDTATYYCARISLYSSGHDTFDLWGQGTMVTVSS VL: AIQMTQSPSSLSASVGDRVTITCRASQDIRNTLGWYQQKPGKAPNLLIYAASSLQSGVPSRFSGSGSGTDFTLTISSLQPEDFATYYCLQDYDYPLTFGGGTKVEIK in the records?
Output line: 86

Input line: Which value of IL-2 % Inhibition (8.5 nM mAb), HLA-Cw6-00290 has been reported for CW6B233 (antibody, V domains shown) VH: QVQLQESGPGLVKPSETLSLTCTVSGNSIRSYYWSWIRQPAGKGLEWIGRIYISGNTNYNPSLKSRVTMSIDTSKNQFSLKLSSVTAADTAVYYCARLSGIDAFDIWGQGTMVTVSS VL: DIQMTQSPSSLSASVGDRVTITCQASQDITNYLNWYQQKPGKAPKLLIYDASNLETGVPSRFSGSGSGTDFTFTISSLQPEDFATYYCQQYDNLPITFGQGTRLEIK in the records?
Output line: 91

Input line: Which value of IL-2 % Inhibition (8.5 nM mAb), HLA-Cw6-00290 has been reported for CW6B130 (antibody, V domains shown) VH: QLQLQESGPGLVKPSETLSLTCTVSGASISSINYYWGWIRQPPGKGLEWIGSFYYSGNTYYNPSLKSRVTISVDTSKNYFSLKLNSVTAADTAVYYCAREYYDSSGYYPFEPWGQGTLVTVSS VL: SYVLTQPPSVSVAPGQTARITCGGDNIGSESVHWYQQKPGQAPVLVVYDDTDRPSGIPERFSGSKSGTTATLTISWVEAGDEADYYCQVWDSSSDHVVFGGGTKLTVL in the records?
Output line: 100
